These entries and their values trace back to PubChem BioAssay (Tox21).

Experiment: qHTS RealTime-Glo MT Cell Viability Assay in HEK293 cells - 24 hour (AID 1224886); further: top concentration of the series differs between compounds; on the % scale 0 is the no-effect control and ±100 the full control effect; nearly all actives have a fitted effect of over 50% in size
Settings: RealTime-Glo luminescence; series mostly up to 76.8 µM
Records with an inconclusive call do not appear. Calls of active or inactive are those of the source. The call rests on the fitted dose curve; in most records, active means well fitted cell-killing curve with a large enough effect in the repeat runs; inconclusive means weak or mixed curves, or effect the other way; inactive means flat fitted curve, though single readings scatter.
Answer with one of the outcomes given here: active, inactive

>>> assigned_label("CN(C)C=O")
"inactive"
>>> assigned_label("CC(=O)OC/C=C(C)/C=C/C=C(C)/C=C/C1=C(C)CCCC1(C)C")
"inactive"
>>> assigned_label("O=c1cc[nH]c(=O)[nH]1")
"inactive"

Req: Just curious, what result did Cc1cccc2ccccc12 get here?
Resp: inactive

Req: Just curious, what result did C[C@]12CC[C@@H]3c4ccc(O)cc4CC[C@H]3[C@@H]1CCC2=O get here?
Resp: inactive

Req: Just curious, what result did CCCCOCCOCCSC#N get here?
Resp: inactive

----------
Biological target: Progesterone receptor (Homo sapiens) (UniProt P06401)
Sequence (P06401 whole entry, looked up): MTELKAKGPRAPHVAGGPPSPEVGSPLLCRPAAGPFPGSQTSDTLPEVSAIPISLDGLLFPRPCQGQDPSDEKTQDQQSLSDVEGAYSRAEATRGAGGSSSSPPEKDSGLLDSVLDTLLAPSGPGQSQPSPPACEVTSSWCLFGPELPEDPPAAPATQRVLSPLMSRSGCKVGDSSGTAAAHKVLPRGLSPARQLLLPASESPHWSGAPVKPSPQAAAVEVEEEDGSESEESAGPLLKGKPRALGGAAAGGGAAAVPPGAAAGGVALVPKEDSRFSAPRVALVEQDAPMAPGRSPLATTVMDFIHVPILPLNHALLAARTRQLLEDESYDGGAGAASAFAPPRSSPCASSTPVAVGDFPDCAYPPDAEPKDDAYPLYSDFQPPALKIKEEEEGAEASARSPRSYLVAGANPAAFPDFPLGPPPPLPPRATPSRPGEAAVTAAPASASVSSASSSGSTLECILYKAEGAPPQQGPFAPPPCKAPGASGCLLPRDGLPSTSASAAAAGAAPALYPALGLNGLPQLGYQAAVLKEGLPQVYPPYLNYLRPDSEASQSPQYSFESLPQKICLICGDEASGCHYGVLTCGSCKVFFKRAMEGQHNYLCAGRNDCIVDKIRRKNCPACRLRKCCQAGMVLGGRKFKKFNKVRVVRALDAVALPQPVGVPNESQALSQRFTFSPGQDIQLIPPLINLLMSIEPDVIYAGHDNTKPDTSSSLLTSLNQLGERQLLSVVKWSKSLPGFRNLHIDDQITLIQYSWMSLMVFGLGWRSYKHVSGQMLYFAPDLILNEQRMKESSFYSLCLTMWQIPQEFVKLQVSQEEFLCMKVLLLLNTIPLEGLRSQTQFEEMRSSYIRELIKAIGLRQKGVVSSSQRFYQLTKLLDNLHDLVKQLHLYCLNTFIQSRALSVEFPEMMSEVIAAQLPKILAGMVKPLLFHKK
Experiment: qHTS assay to identify small molecule antagonists of the progesterone receptor (PR) signaling pathway (AID 1346795)
Conditions: PR-UAS-bla HEK293T, beta-lactamase FRET ratio, 16 h; series mostly up to 92.4 µM
Inconclusive results are not listed. Calls of active or inactive are those of the source. The call rests on the fitted dose curve; in most records, active means well fitted inhibition curve with a large enough effect in the signal ratio in the repeat runs (not every such curve was filed as active); inconclusive means weak or mixed curves; inactive means flat fitted curve, though single readings scatter; the % refers to the signal ratio.
Answer with one of the outcomes given here: active, inactive

Known results for compounds:
>>> assigned_label("COC(=O)c1ccc(O)cc1")
"inactive"
>>> assigned_label("Cc1c(N(C)CS(=O)(=O)O)c(=O)n(-c2ccccc2)n1C")
"inactive"
>>> assigned_label("COc1ccc(C(=O)c2ccccc2)c(O)c1")
"active"
>>> assigned_label("CCc1cc(C(N)=S)ccn1")
"inactive"
>>> assigned_label("C1CNCCN1")
"inactive"
>>> assigned_label("C=C(C)C(N)=O")
"inactive"

Req: Just curious, what result did C=C(C)OC(C)=O get here?
Resp: inactive

Req: Just curious, what result did Cc1cccc(C)c1O get here?
Resp: inactive

Req: Just curious, what result did CO[C@H]1C=CO[C@@]2(C)Oc3c(C)c(O)c4c(O)c(c(/C=N/N5CCN(C)CC5)c(O)c4c3C2=O)NC(=O)/C(C)=C\C=C[C@H](C)[C@H](O)[C@@H](C)[C@@H](O)[C@@H](C)[C@H](OC(C)=O)[C@@H]1C get here?
Resp: inactive

----------
Assay: qHTS assay to identify small molecule antagonists of the thyroid receptor (TR) signaling pathway - cell viability counter screen (AID 743064); further: nearly all actives have a fitted effect of over 50% in size
Conditions: GH3.TRE-Luc viability, CellTiter-Fluor, 24 h; series mostly up to 70.3 µM
Records with an inconclusive call do not appear. Calls of active or inactive are those of the source. The call rests on the fitted dose curve; in most records, active means well fitted cell-killing curve with a large enough effect in the repeat runs; inconclusive means weak or mixed curves, or effect the other way; inactive means no such curve, though single readings can be large or run the other way.
Answer with one of the outcomes given here: active, inactive

>>> assigned_label("O=C(O)Cc1cccc2ccccc12")
"inactive"
>>> assigned_label("COc1cc(C=O)ccc1O")
"inactive"

Req: Just curious, what result did CN/C(=C\[N+](=O)[O-])NCCSCc1ccc(CN(C)C)o1 get here?
Resp: inactive

Req: Just curious, what result did CCN(CC)CCOC(=O)c1ccc(N)cc1 get here?
Resp: inactive

Req: Just curious, what result did CC(=O)/C=C/C1=C(C)CCCC1(C)C get here?
Resp: inactive

Req: Just curious, what result did O=[N+]([O-])c1ccc(O)cc1 get here?
Resp: active

Req: Just curious, what result did CCCCCCCC(=O)OCC(O)CO (stereo not given) get here?
Resp: inactive

Req: Just curious, what result did COc1cc(O)c(C(=O)c2ccccc2)cc1S(=O)(=O)O get here?
Resp: inactive

Req: Just curious, what result did OC[C@@H](O)[C@@H](O)[C@H](O)[C@H](O)CO get here?
Resp: inactive

Req: Just curious, what result did CC1=C(/C=C/C(C)=C/C=C/C(C)=C/C(=O)O)C(C)(C)CCC1 get here?
Resp: inactive

Req: Just curious, what result did CCCCCCCCOc1ccc(C(=O)c2ccccc2)c(O)c1 get here?
Resp: inactive

Req: Just curious, what result did Cn1cnc2c1c(=O)[nH]c(=O)n2C get here?
Resp: inactive

Req: Just curious, what result did Cc1cnc(NC(=O)C2=C(O)c3ccccc3S(=O)(=O)N2C)s1 get here?
Resp: inactive

Req: Just curious, what result did CC(O)COc1ccccc1 (stereo not given) get here?
Resp: inactive

Req: Just curious, what result did C[C@]12CC[C@@H]3c4ccc(O)cc4CC[C@H]3[C@@H]1CCC2=O get here?
Resp: inactive

Req: Just curious, what result did CCOC(=O)C(C)(C)Oc1ccc(Cl)cc1 get here?
Resp: inactive

----------
Assay: qHTS assay to identify small molecule agonists of the hypoxia (HIF-1) signaling pathway - cell viability counter screen (AID 1224844); further: on the % scale 0 is the no-effect control and ±100 the full control effect; nearly all actives have a fitted effect of over 50% in size
Details: HRE-bla ME-180 viability, CellTiter-Glo luminescence, 17 h; series mostly up to 76.8 µM
Inconclusive results are not listed. Active and inactive are the calls of the source. Calls follow the shape of the full dose curve.
Answer with one of the outcomes given here: true (1) (active), false (0) (inactive)

>>> assigned_label("O=c1c(-c2ccc(O)cc2)coc2cc(O)cc(O)c12")
"false (0)"

Let us examine a further case.
Req: Just curious, what result did C[C@]12C[C@H](O)[C@H]3[C@@H](CCC4=CC(=O)CC[C@@]43C)[C@@H]1CC[C@@H]2C(=O)CO get here?
Resp: false (0)

----------
Test: qHTS assay to identify small molecule HDAC inhibitors (AID 1259364);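 further: wild-type HCT-116 cells with endogenous class I/II HDAC activity; top concentration of the series differs between compounds; on the % scale 0 is the no-effect control and ±100 the full control effect; nearly all actives have a fitted effect of over 45% in size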
Conditions: HCT-116 HDAC-Glo I/II luminescence, 2 h; series mostly up to 92.4 µM
Inconclusive results are not listed. Active and inactive are the calls of the source. The call rests on the fitted dose curve; in most records, active means well fitted inhibition curve with a large enough effect in the repeat runs; inconclusive means weak or mixed curves; inactive means flat fitted curve, though single readings scatter.
OBSERVATION_TYPE: outcome

// known answers, use as guide
>>> result("O=C1OC(c2ccc(O)cc2)(c2ccc(O)cc2)c2ccccc21")
"inactive"
>>> result("CC(O)COc1ccccc1 (stereo unspecified)")
"inactive"
>>> result("CC(=O)OC/C=C(C)/C=C/C=C(C)/C=C/C1=C(C)CCCC1(C)C")
"inactive"
>>> result("Cc1cccc2ccccc12")
"inactive"
>>> result("O=C(O)Cc1cccc2ccccc12")
"inactive"
>>> result("CC(C)Cc1ccc(C(C)C(=O)O)cc1 (stereo unspecified)")
"inactive"

COc1cc(O)c(C(=O)c2ccccc2)cc1S(=O)(=O)O has a reported outcome of inactive

CCCCOCCOCCSC#N has a reported outcome of inactive

C=CCOC(=O)CC(C)C has a reported outcome of inactive

CN(C)Cc1cc(CN(C)C)c(O)c(CN(C)C)c1 has a reported outcome of inactive

COc1ccccc1O has a reported outcome of inactive

CC(C)(C)CC(C)(C)c1ccc(O)c(-n2nc3ccccc3n2)c1 has a reported outcome of inactive

COC(=O)c1ccc(O)cc1 has a reported outcome of inactive

----------
Test: A CellTox Green Cytotoxicity Assay to monitor cytotoxicity in HepG2 cells - 8 hour (AID 1224890); further: on the % scale 0 is the no-effect control and ±100 the full control effect; nearly all actives have a fitted effect of over 45% in size
Conditions: CellTox Green fluorescence; series mostly up to 76.8 µM
Inconclusive results are not listed. Active and inactive are the calls of the source. Calls follow the shape of the dose curve; as a rule, active = well fitted activation curve with a large enough effect in the repeat runs; inconclusive = weak or mixed curves; inactive = flat fitted curve, though single readings scatter.
OBSERVATION_TYPE: outcome

>>> result("CCCCCCCC(=O)OCC(O)CO (stereo not drawn)")
"inactive"
>>> result("NC(=O)N/N=C/c1ccc([N+](=O)[O-])o1")
"inactive"
>>> result("O=c1cc[nH]c(=O)[nH]1")
"inactive"

----------
Test: qHTS assay to identify small molecule antagonists of the estrogen related receptor signaling pathway with the pleiotropic PPARgamma coactivator (PGC) from Tox21 10K library - cell viability counter screen (AID 1224840); further: nearly all actives have a fitted effect of over 40% in size
Conditions: PGC/ERR reporter cells viability, CellTiter-Fluor, 17.5 h; series mostly up to 92.4 µM
Inconclusive results are not listed. Active and inactive are the calls of the source. Calls follow the shape of the dose curve; as a rule, active = well fitted cell-killing curve with a large enough effect in the repeat runs (not every such curve was filed as active); inconclusive = weak or mixed curves, or effect the other way; inactive = no such curve, though single readings can be large or run the other way.
Answer with one of the outcomes given here: active, inactive

>>> assigned_label("CC1=C(/C=C/C(C)=C/C=C/C(C)=C/C(=O)O)C(C)(C)CCC1")
"inactive"
>>> assigned_label("C=CC(=O)NC(C)(C)CS(=O)(=O)O")
"inactive"
>>> assigned_label("CO[C@H]1C=CO[C@@]2(C)Oc3c(C)c(O)c4c(O)c(c(/C=N/N5CCN(C)CC5)c(O)c4c3C2=O)NC(=O)/C(C)=C\\C=C[C@H](C)[C@H](O)[C@@H](C)[C@@H](O)[C@@H](C)[C@H](OC(C)=O)[C@@H]1C")
"active"
>>> assigned_label("CC(=O)c1ccc(S(=O)(=O)NC(=O)NC2CCCCC2)cc1")
"inactive"

Req: Just curious, what result did N[C@@H](Cc1c[nH]c2ccccc12)C(=O)O get here?
Resp: inactive

Req: Just curious, what result did Oc1cccc(O)c1 get here?
Resp: inactive

----------
Experiment: qHTS assay to identify small molecule HDAC inhibitors - cell viability counter screen (AID 1259365); further: on the % scale 0 is the no-effect control and ±100 the full control effect; nearly all actives have a fitted effect of over 50% in size
Settings: HCT-116 viability, CellTiter-Glo ATP luminescence, 2 h; series mostly up to 92.4 µM
Activity calls are given as the source filed them. Calls follow the shape of the dose curve; as a rule, active = well fitted cell-killing curve with a large enough effect in the repeat runs; inconclusive = weak or mixed curves, or effect the other way; inactive = flat fitted curve, though single readings scatter.
OBSERVATION_TYPE: outcome

>>> result("C=CC(=O)NC(C)(C)CS(=O)(=O)O")
"inactive"
>>> result("O=C(O)CN(CC(=O)O)CC(=O)O")
"inactive"
>>> result("COc1ccc(O)cc1")
"inactive"
